Measured values drawn from patent US20240376170A1 for this set.

Target under test: T1, IL-2 receptor βγ complex (human, UniProt P14784 27-551; P31785 23-369)
T1 sequence (looked up) 1: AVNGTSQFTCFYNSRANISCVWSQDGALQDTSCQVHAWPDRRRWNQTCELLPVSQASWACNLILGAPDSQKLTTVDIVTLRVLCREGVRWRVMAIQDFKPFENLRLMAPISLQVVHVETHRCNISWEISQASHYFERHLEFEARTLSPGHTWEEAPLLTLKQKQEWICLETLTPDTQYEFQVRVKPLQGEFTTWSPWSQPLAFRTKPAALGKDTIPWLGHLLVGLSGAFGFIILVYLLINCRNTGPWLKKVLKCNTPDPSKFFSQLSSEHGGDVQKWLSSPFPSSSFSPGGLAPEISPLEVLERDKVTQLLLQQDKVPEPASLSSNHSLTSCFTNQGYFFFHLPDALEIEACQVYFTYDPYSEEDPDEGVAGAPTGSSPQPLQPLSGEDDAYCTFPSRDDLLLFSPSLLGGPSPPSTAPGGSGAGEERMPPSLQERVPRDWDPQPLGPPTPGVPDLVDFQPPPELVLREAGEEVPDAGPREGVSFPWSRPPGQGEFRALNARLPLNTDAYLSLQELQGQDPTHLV
T1 sequence (looked up) 2: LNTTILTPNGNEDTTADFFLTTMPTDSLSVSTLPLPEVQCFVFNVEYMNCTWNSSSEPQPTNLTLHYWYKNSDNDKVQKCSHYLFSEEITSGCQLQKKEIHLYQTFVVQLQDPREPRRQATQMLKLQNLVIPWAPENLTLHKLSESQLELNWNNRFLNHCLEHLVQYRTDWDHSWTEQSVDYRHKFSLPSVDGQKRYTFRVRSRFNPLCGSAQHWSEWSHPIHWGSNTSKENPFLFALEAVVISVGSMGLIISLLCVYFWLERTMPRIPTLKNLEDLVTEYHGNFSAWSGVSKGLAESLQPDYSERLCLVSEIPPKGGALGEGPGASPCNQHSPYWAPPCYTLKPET
Procedure details: cell-based or functional assay
Bridges are numbered along the chain shown (N, C = ends). Primed or numbered codes have the meaning given here. [ ]: non-standard residue; d: D form. Ygp(4) = Tyr with amino-capped PEG8 (O-(8x polyethylene glycol-amino)-tyrosine); Yn3(4) = Tyr with azide-capped PEG9 (O-(9x polyethylene glycol-azido)-tyrosine); Ygp = O-(8x polyethylene glycol-amino)-tyrosine (Tyr, amino-capped PEG8); Yn3 = O-(9x polyethylene glycol-azido)-tyrosine (Tyr, azide-capped PEG9); hSer = N[C@@H](CCO)C(=O)O; Nle = CCCC[C@H](N)C(=O)O
Entries and their Average EC50, pSTAT5 Assay (T cells)
Test readout: Average EC50, pSTAT5 Assay (T cells)

[
  {
    "Binder": "CMP-300, MMP2 cleaved molecule (ligand, not fully specified; ends and bridges not checked; also: cleaved by MMP2, product not given here, N-terminus linked to another sequence via PEG4, Glu23 side chain linked to another sequence) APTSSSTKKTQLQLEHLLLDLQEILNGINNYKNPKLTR[Nle]L[hSer][Yn3(4)]KF[Ygp(4)][Nle]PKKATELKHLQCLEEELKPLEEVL[hSer]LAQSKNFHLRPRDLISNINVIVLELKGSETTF[hSer]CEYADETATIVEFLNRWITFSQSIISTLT",
    "Assay result": "1.73 nM"
  },
  {
    "Binder": "CMP-169 (ligand, bridge 9-23; not fully specified (bridges); ends not checked; also: linker peptide sequence not given here) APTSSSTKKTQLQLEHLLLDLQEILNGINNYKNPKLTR[Nle]L[hSer][Yn3(4)]KF[Ygp(4)][Nle]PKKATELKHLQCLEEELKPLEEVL[hSer]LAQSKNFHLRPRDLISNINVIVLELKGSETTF[hSer]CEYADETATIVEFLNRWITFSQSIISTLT",
    "Assay result": "53.4 nM"
  },
  {
    "Binder": "CMP-168 (ligand, bridge 9-23; not fully specified (bridges); ends not checked; also: sequence of the cleavable bridging peptide not given here) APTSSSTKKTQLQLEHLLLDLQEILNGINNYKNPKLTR[Nle]L[hSer][Yn3(4)]KF[Ygp(4)][Nle]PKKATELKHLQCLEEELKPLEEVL[hSer]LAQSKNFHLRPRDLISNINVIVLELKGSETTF[hSer]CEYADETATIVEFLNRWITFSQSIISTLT",
    "Assay result": "144 nM"
  },
  {
    "Binder": "CMP-305 (ligand, bridge 15-23; not fully specified (bridges); also: further groups not given here) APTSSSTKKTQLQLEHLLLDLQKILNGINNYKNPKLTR[Nle]L[hSer][Yn3]KF[Ygp][Nle]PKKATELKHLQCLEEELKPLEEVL[hSer]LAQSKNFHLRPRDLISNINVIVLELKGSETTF[hSer]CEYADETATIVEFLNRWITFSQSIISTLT",
    "Assay result": "128 nM"
  }
]
